testMethodNotes: Metabolic stability in human cytosol assessed as intrinsic clearance
Assay type: ADME, subcellular
quantityKind: microsomal CLint

smilesEntry | result
Cc1ccc2nc(Nc3cnn(C4CCN(C)CC4)c3)nc(OC3(C)CC3)c2n1 | < 0.5 µL/min/mg

Task: What microsomal CLint value was documented for this compound, Cc1ncc(-c2nc3c(OC4(C)CC4)nc(Nc4cnn(C5CCN(C)CC5)c4)nc3cc2F)cn1 ?
Result: < 0.5 µL/min/mg

Task: What microsomal CLint value was documented for this compound, Cc1ncncc1-c1nc2c(OC3(C)CC3)nc(Nc3cnn(C4CCN(C)CC4)c3)nc2cc1F ?
Result: < 0.5 µL/min/mg

====

testMethodNotes: Lipophilicity, LogD at pH 7.4 of the compound by shake flask method
Type: physicochemical
testContext: buffer
quantityKind: logD
Answer with a number only.

smilesEntry | quantityKind | quantitativeResult
Cc1ncncc1-c1nc2c(OC3(C)CC3)nc(Nc3cnn(C4CCN(C)CC4)c3)nc2cc1F | logD | 2.2
CN1CCC(n2cc(Nc3nc(OC4(C)CC4)c4nc(-c5cn(C)nn5)ccc4n3)cn2)CC1 | logD | 1.8
CC(=O)N1CCC(n2cc(Nc3nc(OC4CCOCC4)c4nc(C)ccc4n3)cn2)CC1 | logD | 2.3

Let us examine a further case.
Task: What logD value was documented for this compound, Cc1nc2c(OC3(C)CC3)nc(Nc3cnn(C4CC5(C4)CN(C)C5)c3)nc2cc1F ?
Result: 2.2

====

testMethodNotes: Lipophilicity, LogD at pH 7.4 of the compound by shake flask method
Assay type: physicochemical
testContext: buffer
Respond with met for logD values of 2 and above, not met for values below.

Task: Hello, I need to know if Cn1cc(Nc2nc(NC3CCOCC3)c3nc(CC#N)ccc3n2)cn1 has measured logD not below 2. Thanks!
Result: not met

Task: Hello, I need to know if Cn1cc(Nc2nc(NC3(C)CC3)c3nc(CC#N)ccc3n2)cn1 has measured logD not below 2. Thanks!
Result: met

Task: Hello, I need to know if CN1CCC(n2cc(Nc3nc(OC4(C)CC4)c4nc(-c5ccnnc5)ccc4n3)cn2)CC1 has measured logD not below 2. Thanks!
Result: not met

Task: Hello, I need to know if CC(=O)N1CCC(n2cc(Nc3nc(NC4CCOCC4)c4nc(CC#N)ccc4n3)cn2)CC1 has measured logD not below 2. Thanks!
Result: not met

Task: Hello, I need to know if CN1CCC(n2cc(Nc3nc(OC4(C)CC4)c4nc(-c5cnn(C)c5)ccc4n3)cn2)CC1 has measured logD not below 2. Thanks!
Result: met

Task: Hello, I need to know if CC(C)Nc1nc(Nc2cnn(C)c2)nc2ccc(CC#N)nc12 has measured logD not below 2. Thanks!
Result: met

Task: Hello, I need to know if Cc1ncc(-c2ccc3nc(Nc4cnn(C5CCN(C)CC5)c4)nc(OC4(C)CC4)c3n2)c(C)n1 has measured logD not below 2. Thanks!
Result: met

Task: Hello, I need to know if CN1CCC(n2cc(Nc3nc(OC4(C)CC4)c4nc(-c5cn(C)cn5)ccc4n3)cn2)CC1 has measured logD not below 2. Thanks!
Result: not met

Task: Hello, I need to know if CN1CCC(n2cc(Nc3nc(OC4(C)CC4)c4nc(-c5cccnc5)ccc4n3)cn2)CC1 has measured logD not below 2. Thanks!
Result: met
